System: Plasmodium berghei
Assay: Screen against P. berghei liver stage (PbLuc), transformed with Luciferase, at 10uM
Format: functional, HepG2
Settings: tested at 10 uM
Hit rate of the full screen: of about 69,000 compounds, about 8,600 (12%) showed an effect of 50% or more. What follows is part of a selection rich in strong results, with near analogues and random picks from the rest.
Output true (1) for records whose INHIBITION is lower than 20%, false (0) for records at or above 20%.

Solved cases below.
[[record]]
compound = "O=C(N1CCCC1)N1CCC[C@]2(C[C@@H](OCc3ccncc3)CO2)C1"
category = "false (0)"

[[record]]
compound = "CSCC1CCN(C(=O)Cn2ncc(N3CCCCC3)cc2=O)CC1"
category = "false (0)"

[[record]]
compound = "CC(CCNC(=O)N1CCC1)N(C)C(=O)OC(C)(C)C (centres undefined)"
category = "true (1)"

[[record]]
compound = "O=C(NCc1cn2c(n1)SCC2)c1cn(CCN2CCCCC2)nn1"
category = "false (0)"


Say whether its INHIBITION is strictly beneath 20%. Entry: Cc1cccnc1NC(=O)C1CSc2ncc(C)c(=O)n2C1 (centres undefined)
true (1)

Say whether its INHIBITION is strictly beneath 20%. Entry: CC(C)CN(Cc1ccccn1)Cc1ccccc1OCC(=O)O
false (0)

Say whether its INHIBITION is strictly beneath 20%. Entry: Cc1cnc2n(c1=O)CC(C(=O)Nc1ccccc1Cl)CS2 (centres undefined)
true (1)

Say whether its INHIBITION is strictly beneath 20%. Entry: N#Cc1ccc(C(=O)N2C[C@H](OCc3cccnc3)[C@H]3COC[C@H]32)cc1
true (1)

Say whether its INHIBITION is strictly beneath 20%. Entry: O=C(CCN1CCCCO1)NCc1cn2c(n1)SCC2
false (0)

----------
Measured INHIBITION by item
Test system: Plasmodium berghei
Test: Screen against P. berghei liver stage (PbLuc), transformed with Luciferase, at 10uM
Format: functional, HepG2
Details: tested at 10 uM
Screen size: about 69,000 compounds; about 8,600 (12%) showed an effect of 50% or more. This is one part of a sample in which strong results are shown more often than they occur.
Respond with the bare value in %.

// known answers, use as guide
[[record]]
compound = "CC(C)C(=O)N1CCN(C(=O)c2cscn2)[C@H]2CS(=O)(=O)C[C@H]21"
scale_unit = "%"
number = 26.8

[[record]]
compound = "CN(CC(=O)NC(C)(C)C)C(=O)C1CC(c2cccc(F)c2)=NO1 (stereo unspecified)"
scale_unit = "%"
number = -29.1

[[record]]
compound = "CN(C)c1nccc(N(C)C2CCCCC2)n1"
scale_unit = "%"
number = 25.5

[[record]]
compound = "CCN(C)S(=O)(=O)NC(C)c1cnc(N(C)C2CCCCC2)nc1C (stereo unspecified)"
scale_unit = "%"
number = 63.1

[[record]]
compound = "CCn1nc(C)c(C(C)NC(=O)c2cnc(N(C)C)nc2C)c1C (stereo unspecified)"
scale_unit = "%"
number = 10.3

[[record]]
compound = "Cc1nc(-c2ccncc2)ncc1C(C)NC(=O)CN1CCCCC1 (stereo unspecified)"
scale_unit = "%"
number = 35.8

[[record]]
compound = "CCc1nc(C2CCCN(C(=O)c3cccc(C(N)=O)c3)C2)no1 (stereo unspecified)"
scale_unit = "%"
number = 19.5

[[record]]
compound = "Cc1cnc(N2C[C@@H]3[C@@H](C2)OCC(=O)N3CC2CC2)nc1"
scale_unit = "%"
number = 31.9


INHIBITION for Cc1nc(N(C)C2CCCCC2)ncc1C(C)NC(=O)c1cscn1 (stereo unspecified) ?
59.2

INHIBITION for Cc1cnc(N2C[C@@H]3[C@@H](C2)OCC(=O)N3CCN(C)C)nc1 ?
73.3

INHIBITION for CN(c1ncccc1CNC(=O)c1cscn1)C1CCCCC1 ?
26
